Tested on: Escherichia coli
protocolSummary: Minimum inhibitory concentration against Escherichia coli ES142
Format: functional
readoutType: MIC (µg/mL)
Dear colleague, please return just the value in µg/mL, with no unit written.

Identify measured MIC corresponding to C[C@H]1COc2c(N3CC[C@@H](C(C)(C)N)C3)ccc3c(=O)c(C(=O)O)cn1c23
0.5

Please give measured MIC of the following entry: C[C@H](N)[C@@H]1CCN(c2ccc3c(=O)c(C(=O)O)cn4c3c2OC[C@@H]4C)C1
0.5

Determine from records and report MIC for C[C@H]1COc2c(N3CCN(C)CC3)ccc3c(=O)c(C(=O)O)cn1c23
8

Please supply the value of reported MIC for the item C[C@H]1COc2c(N3CCC[C@H](N)C3)ccc3c(=O)c(C(=O)O)cn1c23
1

###

targetOrSystem: DNA gyrase (Escherichia coli)
protocolSummary: Inhibitory activity against wild type gyrase in Escherichia coli
readoutType: IC50 (µg/mL)
Unit µg/mL implied. Number only.

For the molecule C[C@H]1COc2c(N3CCN(C)CC3)ccc3c(=O)c(C(=O)O)cn1c23 , give its reported IC50.
31

Output measured IC50 for this item: C[C@H]1COc2c(N3CC[C@@H](C(C)(C)N)C3)ccc3c(=O)c(C(=O)O)cn1c23
3.2

Look up IC50 of C[C@H](N)[C@@H]1CCN(c2ccc3c(=O)c(C(=O)O)cn4c3c2OC[C@@H]4C)C1 and report it.
6.4

Identify measured IC50 associated with C[C@H]1COc2c(N3CCC[C@H](N)C3)ccc3c(=O)c(C(=O)O)cn1c23
63

###

So I've got a bunch of compounds here, and I need their MIC values.
Test system: Klebsiella pneumoniae
protocolSummary: Minimum inhibitory concentration against Klebsiella pneumoniae KL21
Type: functional

Quote Klebsiella pneumoniae MIC for entry C[C@H](N)[C@@H]1CCN(c2ccc3c(=O)c(C(=O)O)cn4c3c2OC[C@@H]4C)C1 .
0.016 µg/mL

Quote MIC with test system Klebsiella pneumoniae for C[C@H]1COc2c(N3CCN(C)CC3)ccc3c(=O)c(C(=O)O)cn1c23
1 µg/mL

# return MIC of C[C@H]1COc2c(N3CC[C@@H](C(C)(C)N)C3)ccc3c(=O)c(C(=O)O)cn1c23 (system: Klebsiella pneumoniae)
0.031 µg/mL

// fetch MIC; item: C[C@H]1COc2c(N3CCC[C@H](N)C3)ccc3c(=O)c(C(=O)O)cn1c23 ; system: Klebsiella pneumoniae
0.25 µg/mL

Report value: MIC, system: Klebsiella pneumoniae, compound: C[C@H]1COc2c(N3CCN(C)CC3)c(F)cc3c(=O)c(C(=O)O)cn1c23.C[C@H]1COc2c(N3CCN(C)CC3)c(F)cc3c(=O)c(C(=O)O)cn1c23.O [LEVOFLOXACIN]
< 0.004 µg/mL

###

So I've got a bunch of compounds here, and I need their MIC values.
System: Enterococcus faecium
protocolSummary: Minimum inhibitory concentration against Enterococcus faecium (VS; Vancomycin sensitive) EF1
Assay type: functional
Give the quantity in µg/mL, number only.

Give recorded MIC. C[C@H](N)[C@@H]1CCN(c2ccc3c(=O)c(C(=O)O)cn4c3c2OC[C@@H]4C)C1
1

Given C[C@H]1COc2c(N3CCN(C)CC3)c(F)cc3c(=O)c(C(=O)O)cn1c23.C[C@H]1COc2c(N3CCN(C)CC3)c(F)cc3c(=O)c(C(=O)O)cn1c23.O [LEVOFLOXACIN] , respond with its MIC.
0.25

Check the records and state MIC for C[C@H]1COc2c(N3CC[C@@H](C(C)(C)N)C3)ccc3c(=O)c(C(=O)O)cn1c23
1
